molecular target: TbRPA complex: 6xHis-RPA1;TbRPA2;TbRPA3 (Trypanosoma brucei;Trypanosoma brucei;Trypanosoma brucei) (UniProt Q384B5); experiment: MST; conditions: second measurement, with S105T / length series; 20 mM Tris pH 7.5, 10 mM NaCl, 10 mM MgCl2, 2 mM DTT, 10% glycerol, 0.1 mg/ml BSA, 15 min, room temperature; EMSA 2 nM probe (gel at 4 C), MST 10 nM probe
QUANTITY MEASURED: Kd (nM)
Output spec: scalar in nM, unitless text.

So what does the record say about Kd for TTTTTTTTTTTTTTTTTTTTTTTTTTTTTTTT [dT32] ? 15.5

Values compiled from paper PMC10359466.
